The reported measurements were obtained from patent US20240301052A1.

Target: T1, human SLC34A2 (human, UniProt O95436 1-690)
T1 construct: whole, on cells; also called human solute carrier 34 A2; NaPi2b
T1 sequence (looked up): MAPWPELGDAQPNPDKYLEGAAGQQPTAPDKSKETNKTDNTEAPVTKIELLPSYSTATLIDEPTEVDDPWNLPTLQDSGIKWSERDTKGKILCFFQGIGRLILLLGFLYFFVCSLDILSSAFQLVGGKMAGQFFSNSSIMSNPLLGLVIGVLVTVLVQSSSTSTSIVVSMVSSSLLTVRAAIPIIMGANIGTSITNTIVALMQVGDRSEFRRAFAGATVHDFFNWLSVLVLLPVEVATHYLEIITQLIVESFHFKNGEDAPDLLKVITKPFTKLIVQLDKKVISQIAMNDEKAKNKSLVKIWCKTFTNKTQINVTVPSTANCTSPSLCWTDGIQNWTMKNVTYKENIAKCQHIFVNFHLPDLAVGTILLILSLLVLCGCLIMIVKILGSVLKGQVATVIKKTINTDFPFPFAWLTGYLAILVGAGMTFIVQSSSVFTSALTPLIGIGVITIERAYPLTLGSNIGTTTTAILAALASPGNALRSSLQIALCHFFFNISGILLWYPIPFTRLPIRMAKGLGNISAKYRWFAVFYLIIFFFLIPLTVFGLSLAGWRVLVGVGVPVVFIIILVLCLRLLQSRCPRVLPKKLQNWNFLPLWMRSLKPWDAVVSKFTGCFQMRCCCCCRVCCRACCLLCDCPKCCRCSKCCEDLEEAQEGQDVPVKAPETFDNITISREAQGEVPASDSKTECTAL
Assay: FACS, HEK293/human SLC34A2 cells
Top overview
# value in MFI; strip the unit string

# BINDER, Top (MFI)
records = [
    ("91C9F1.p1.z4 hIgG1 (antibody, V domains shown, humanized hIgG1) VH: QVQLVQSGAEVKKPGSSVKVSCKASGFFFTEYIIHWVRQAPGQGLEWMGGIIPNNDVTNYKQNFRGRVTITADESTSTAYMELSSLRSEDTAVYYCARWRNAYYSAMDSWGQGTTVTVSS VL: DIVVTQSPSSLSTSVGDRVTITCTASQDVGTAVAWYQQKPGKSPKLLIYWASTRHTGVPERFTGSGSGTDFTLTISSVQPEDVATYFCQQYRTSPLTFGVGTKLELK", 34600),
]

Kindly review the next binder as well.
The measured Top associated with 63A11D5B4.p1.z15 hIgG1 (antibody, V domains shown, humanized hIgG1) VH: QVQLQQSGAEVVKPGASVKMSCKTSGYTFITYNMHWVKQAPGQGREWIGAIYPGSGDTSYNQKFKGRATLTADKSTSTAYMELSSLRSEDTAVYYCSISTIITTGAVDYWGQGTSVTVSS VL: DIQMTQSPSSLSTSVGDRVTITCKASQDVGTAVAWYQQKPGQSPKLLIYWTSTRHTGVPDRFSGSGSGTDFTLIIRSLQPEDVATYFCQQYSRIPLTFGGGTKVEIK reads 37000
